Target: HDM2 (Homo sapiens, UniProt Q00987)
Construct: Thioredoxin (N); made in house; host or cells: E. coli strain BL21(DE3)Rosetta
Sequence (Q00987 17-125): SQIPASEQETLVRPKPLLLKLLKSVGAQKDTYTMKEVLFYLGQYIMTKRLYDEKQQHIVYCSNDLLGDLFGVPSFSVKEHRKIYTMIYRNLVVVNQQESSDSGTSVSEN
Test: HDM2 FRET assay (inhibition of binding of FITC labeled p53-pocket peptide to HDM2)
Conditions: Table 23; read-out: FRET IC50
pIC50: −log10 of the molar value.

>  <molecule>
C[C@H]1CC[C@H](Cn2c(C(=O)c3ccccc3)nc3nc(-c4noc(=O)[nH]4)nc(-c4cccc(Cl)c4)c32)CC1

>  <test target>
HDM2 (Homo sapiens, UniProt Q00987)

>  <pIC50>
7.14

$$$$
>  <molecule>
C[C@H]1CC[C@H](Cn2c(C3(F)CCCC3)nc3nc(-c4n[nH]c(=O)o4)nc(-c4cncc(Cl)c4)c32)CC1

>  <test target>
HDM2 (Homo sapiens, UniProt Q00987)

>  <pIC50>
7.82

$$$$
>  <molecule>
COC(c1ccccc1F)c1nc2nc(-c3n[nH]c(=O)o3)nc(-c3cncc(Cl)c3)c2n1C[C@H]1CC[C@H](C)CC1 (mixture of isomers)

>  <test target>
HDM2 (Homo sapiens, UniProt Q00987)

>  <pIC50>
8.77

$$$$

###

Target: HDM2 (Homo sapiens, UniProt Q00987)
Construct: Thioredoxin (N); made in house; host or cells: E. coli strain BL21(DE3)Rosetta
Assay: FRET assay (HDM2 inhibition; method not described in this part)
Type: binding
Settings: Table 5
pIC50: −log10 of the molar value.
Rule: pIC50 under 6 gives 0 (no), otherwise 1 (yes).

>  <molecule>
Cc1cccc(-c2nc3nc(C(=O)O)nc(N[C@H](C)C4CCC4)c3n2Cc2ccc(OC(F)(F)F)c(F)c2)c1

>  <test target>
HDM2 (Homo sapiens, UniProt Q00987)

>  <category>
1 (yes)

$$$$
>  <molecule>
Cc1cccc(-c2nc3nc(C(=O)O)nc(N[C@@H](C)C4CC4)c3n2C(C)c2ccc(Cl)cc2)c1 (stereo partly shown)

>  <test target>
HDM2 (Homo sapiens, UniProt Q00987)

>  <category>
1 (yes)

$$$$
>  <molecule>
Cc1cccc(-c2nc3nc(C(=O)O)nc(N[C@H](C)C4CCC4)c3n2Cc2ccc(C(F)(F)F)cc2F)c1

>  <test target>
HDM2 (Homo sapiens, UniProt Q00987)

>  <category>
1 (yes)

$$$$
>  <molecule>
CCOc1ccc(C(F)(F)F)cc1Cn1c(-c2cccc(C)c2)nc2nc(C(=O)O)nc(N[C@H](C)C3CC3)c21

>  <test target>
HDM2 (Homo sapiens, UniProt Q00987)

>  <category>
0 (no)

$$$$
>  <molecule>
Cc1cccc(-c2nc3nc(C(=O)O)nc(N[C@H](C)C4CC4)c3n2Cc2ccc(F)c(C(F)(F)F)c2)c1

>  <test target>
HDM2 (Homo sapiens, UniProt Q00987)

>  <category>
0 (no)

$$$$

###

Target: HDM2 (Homo sapiens, UniProt Q00987)
Construct: Thioredoxin (N); made in house; host or cells: E. coli strain BL21(DE3)Rosetta
Assay: HDM2 FRET assay (inhibition of binding of FITC labeled p53-pocket peptide to HDM2)
Conditions: Table 18; read-out: FRET IC50
Text: Methods: An HDM2 FRET assay was developed to assess the compounds' inhibitory activity towards binding of p53 protein. […] Protein was purified using Ni-affinity chromatography, followed by size exclusion chromatography using Superdex 75 26/60 column. […] The HDM2 assay buffer contained 1x Phosphate Buffered Saline (Invitrogen, Cat#14190), 0.01% BSA (Jackson ImmunoResearch, Cat# 001-000-162), 0.01% Tween-20. […]
pIC50: −log10 of the molar value.
experimental endpoint: pIC50

>  <compound>
CC(C)c1ccnc(-c2nc3nc(-c4noc(=O)[nH]4)nc(N[C@H](C)C4CCC4)c3n2C[C@H]2CC[C@H](C(F)(F)F)CC2)c1

>  <experimental endpoint>
pIC50

>  <readout value>
7.89

$$$$
>  <compound>
CCC1=CCC(Cn2c(-c3cc(C(C)C)ccn3)nc3nc(-c4noc(=O)[nH]4)nc(N[C@H](C)C4CCC4)c32)CC1 (stereo partly drawn) [Example 18.25]

>  <experimental endpoint>
pIC50

>  <readout value>
7.36

$$$$
>  <compound>
CC(C)c1ccnc(-c2nc3nc(C(=O)O)nc(N[C@H](C)C4CCC4)c3n2C[C@H]2CC[C@H](C(F)(F)F)CC2)c1

>  <experimental endpoint>
pIC50

>  <readout value>
8.46

$$$$

The measurements presented in this section are drawn from patent EP2951180B1.
